For reference, IC50 measured on porcine liver PMPMEase (Sus scrofa):
The reply should be a number in nM, with the unit left off.

Form: item CC(C)=CCC/C(C)=C/CSCCS(=O)(=O)F [GESF] ; test system porcine liver PMPMEase (Sus scrofa); IC50: 169

Please find the next compound below.
Form: item CC(C)=CCC/C(C)=C/CC/C(C)=C/CSCCS(=O)(=O)F [FESF] ; test system porcine liver PMPMEase (Sus scrofa); IC50: 37

* * *

- system name: Purified PMPMEase (Sus scrofa)
- Construct: from tissue; host or cells: porcine liver supernatant, purified by column chromatography
- Sequence (Q29550 19-566): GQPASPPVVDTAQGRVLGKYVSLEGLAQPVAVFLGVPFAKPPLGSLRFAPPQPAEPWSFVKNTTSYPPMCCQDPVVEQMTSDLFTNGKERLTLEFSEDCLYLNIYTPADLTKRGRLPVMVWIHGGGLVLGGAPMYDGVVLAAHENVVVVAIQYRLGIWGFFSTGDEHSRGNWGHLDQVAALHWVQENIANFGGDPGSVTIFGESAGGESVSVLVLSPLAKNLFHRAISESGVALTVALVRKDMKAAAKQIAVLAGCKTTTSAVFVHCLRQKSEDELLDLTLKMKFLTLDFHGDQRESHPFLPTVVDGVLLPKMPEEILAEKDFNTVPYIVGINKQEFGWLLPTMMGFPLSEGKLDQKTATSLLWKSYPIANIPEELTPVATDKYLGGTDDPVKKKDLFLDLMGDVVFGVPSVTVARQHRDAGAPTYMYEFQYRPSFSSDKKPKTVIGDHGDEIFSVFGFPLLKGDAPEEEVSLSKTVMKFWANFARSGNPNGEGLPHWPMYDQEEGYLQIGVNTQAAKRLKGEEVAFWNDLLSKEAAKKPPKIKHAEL
- Format: biochemical, porcine
readout: Residual activity (% of Control, SEM, n = 3) 1 mM

Consider the reported Residual activity (% of Control, SEM, n = 3) 1 mM for these compounds:
Input Cc1ccc(S(=O)(=O)N[C@@H](CCCCN)C(=O)CCl)cc1 . Output Residual activity (% of Control, SEM, n = 3) 1 mM: 98.6 ± 7.3 % of Control

Input CCC(C)C(O)C(C)C(=O)C(C)/C=C(\C)CC(C)C1OC(=O)C1C (centres unmarked) . Output Residual activity (% of Control, SEM, n = 3) 1 mM: 18.3 ± 0.3 % of Control

Input CC(C)CC(N)C(=O)CCl (centres unmarked) . Output Residual activity (% of Control, SEM, n = 3) 1 mM: 60.4 ± 1.9 % of Control

Input NC(=O)OCc1ccccc1 [Benzyl carbamate] . Output Residual activity (% of Control, SEM, n = 3) 1 mM: 124 ± 5 % of Control

Please find the next compound below.
Input CCC(C)C(O)C(C)C(=O)C(C)/C=C(\C)CC(C)C1OC(=O)C1CC (centres unmarked) . Output Residual activity (% of Control, SEM, n = 3) 1 mM: 0 ± 0 % of Control

* * *

Reported values of Residual activity (% of Control, SEM, n = 3) 0.01 mM for individual entries
- system name: Purified PMPMEase (Sus scrofa)
- Construct: from tissue; host or cells: porcine liver supernatant, purified by column chromatography
- Format: biochemical, porcine

Input O=C(N[C@@H](Cc1ccccc1)C(=O)CCl)OCc1ccccc1 [N-carbobenzyloxy-L- Phe CMK] . Output Residual activity (% of Control, SEM, n = 3) 0.01 mM: 94.8 ± 1.3 % of Control

Input Cc1ccc(S(=O)(=O)N[C@@H](CCCCN)C(=O)CCl)cc1 [Nα-tosyl-L-Lys CMK] . Output Residual activity (% of Control, SEM, n = 3) 0.01 mM: 98.3 ± 1.9 % of Control

Input CCC(C)C(O)C(C)C(=O)C(C)/C=C(\C)CC(C)C1OC(=O)C1CC (stereo not shown) [Ebelactone B] . Output Residual activity (% of Control, SEM, n = 3) 0.01 mM: 56.4 ± 1.0 % of Control

Input CC(C)CC(N)C(=O)CCl [L-Leu chloromethyl ketone (CMK)] . Output Residual activity (% of Control, SEM, n = 3) 0.01 mM: 93.3 ± 1.0 % of Control

Input CCC(C)C(O)C(C)C(=O)C(C)/C=C(\C)CC(C)C1OC(=O)C1C (stereo not shown) [Ebelactone A] . Output Residual activity (% of Control, SEM, n = 3) 0.01 mM: 123 ± 7 % of Control

Input NC(=O)OCc1ccccc1 [Benzyl carbamate] . Output Residual activity (% of Control, SEM, n = 3) 0.01 mM: 117 ± 11 % of Control

Input COC(=O)NS(=O)(=O)c1ccc(N)cc1 [Asulam] . Output Residual activity (% of Control, SEM, n = 3) 0.01 mM: 113 ± 6.3 % of Control
